System: B-CPAP (Thyroid Gland Carcinoma)
Experiment: combination Emax (second highest fraction inhibited in the dose matrix, 72 h); higher = more inhibition; extreme values may be limits of the assay
Returns Condition met if the recorded combination Emax is greater than or equal to 0.4, and Condition not met otherwise.

[Q] Decide: combination Emax of C[C@@H](c1ccc2nccn2c1)n1nnc2ncc(-c3cnn(C)c3)nc21 [Savolitinib] + CN(CC[C@H](CSC1=CC=CC=C1)NC2=C(C=C(C=C2)S(=O)(=O)NC(=O)C3=CC=C(C=C3)N4CCC(CC4)[C@H](C5=CC=CC=C5C6=CC=C(C=C6)Cl)O)S(=O)(=O)C(F)(F)F)CCO [AZD4320] (first compound max 1 µM, 7x7, partner max 1 µM) >= 0.4?
[A] Condition not met

[Q] Decide: combination Emax of CC1(C)CCC(CN2CCN(c3ccc(C(=O)NS(=O)(=O)c4ccc(NCC5CCOCC5)c([N+](=O)[O-])c4)c(Oc4cnc5[nH]ccc5c4)c3)CC2)=C(c2ccc(Cl)cc2)C1 [Venetoclax] + CCN(CCO)CCCOc1ccc2c(Nc3cc(CC(=O)Nc4cccc(F)c4)[nH]n3)ncnc2c1 [AZD2811] (first compound max 1 µM, 7x7, partner max 1 µM) >= 0.4?
[A] Condition not met

[Q] Decide: combination Emax of CC(=O)c1c(C)c2cnc(Nc3ccc(N4CCNCC4)cn3)nc2n(C2CCCC2)c1=O [Palbociclib] + Cn1cnc2c(F)c(Nc3ccc(Br)cc3Cl)c(C(=O)NOCCO)cc21 [Selumetinib] (first compound max 10 µM, 7x7, partner max 10 µM) >= 0.4?
[A] Condition not met

[Q] Decide: combination Emax of CN(CCO)CC[C@H](CSc1ccccc1)Nc1ccc(S(=O)(=O)NC(=O)c2ccc(N3CCC([C@@H](O)c4ccccc4-c4ccc(Cl)cc4)CC3)cc2)cc1S(=O)(=O)C(F)(F)F [AZD4320] + C[C@@H](Nc1cc(F)cc(F)c1)c1cc(C(=O)N(C)C)cc2c(=O)cc(N3CCOCC3)oc12 [AZD8186] (first compound max 1 µM, 7x7, partner max 3 µM) >= 0.4?
[A] Condition met

[Q] Decide: combination Emax of C=CCn1c(=O)c2cnc(Nc3ccc(N4CCN(C)CC4)cc3)nc2n1-c1cccc(C(C)(C)O)n1 [AZD1775] + C[C@@H]1COCCN1C2=NC(=NC(=C2)C3(CC3)[S@](=N)(=O)C)C4=C5C=CNC5=NC=C4 [AZD6738] (first compound max 1 µM, partner max 10 µM) >= 0.4?
[A] Condition met

[Q] Decide: combination Emax of CC1(C)CCC(CN2CCN(c3ccc(C(=O)NS(=O)(=O)c4ccc(NCC5CCOCC5)c([N+](=O)[O-])c4)c(Oc4cnc5[nH]ccc5c4)c3)CC2)=C(c2ccc(Cl)cc2)C1 [Venetoclax] + Cn1cnc2c(F)c(Nc3ccc(Br)cc3Cl)c(C(=O)NOCCO)cc21 [Selumetinib] (first compound max 1 µM, 7x7, partner max 3 µM) >= 0.4?
[A] Condition not met

[Q] Decide: combination Emax of CN(C)CCCOc1ccc(-c2ccc3ncc4c(c3c2)n(C2CCOCC2)c(=O)n4C)cn1 [AZD0156] + C=CCn1c(=O)c2cnc(Nc3ccc(N4CCN(C)CC4)cc3)nc2n1-c1cccc(C(C)(C)O)n1 [AZD1775] (first compound max 1 µM, partner max 1 µM) >= 0.4?
[A] Condition not met
